System: binding between human C1q protein and alkaline phosphatase (ALP)-labeled human immunoglobulin (IgG)
Test: Inhibition of the binding between an immunoglobulin and C1q (C1q spotted on nitrocellulose membrane, ALP-labeled IgG detection)
Details: peptide 500 μg/ml; 400 ng human C1q per spot; ALP-labeled human IgG diluted 1000-fold; room temperature, one hour
Source text: It was investigated whether or not the 9 residue-peptide CKVPGLYYF (SEQ ID NO: 2) considered to be necessary for the binding between C1q and an immunoglobulin (IgG) inhibits the binding between C1q and an immunoglobulin. […]
measured parameter: inhibition of the binding between C1q and an immunoglobulin (IgG)

> print(dat)
                                  substance     result
1  CKAPGLYYF (Immunoglobulin binding peptide) [R10]    inhibit
2  STAKFTCKVPGLYYF (Immunoglobulin binding peptide) [R11]    inhibit
3  PGLYYF (Immunoglobulin binding peptide) [R1]  inhibited
4  CKVPGLYYF (Immunoglobulin binding peptide) [R2]  inhibited
